System: NCI-H522 lung
Assay explanation: NCI tumour cell line growth inhibition, 48 h
Each record here notes measured TGI.

See these solved cases before continuing.
| Compound | Metric name | Val |
| --- | --- | --- |
| COc1cccc2c1C(=O)C1(O)CCCCC21 (stereo unspecified) | TGI | > 100 µM |
| COc1cc(/C=C2/SC(c3ccccc3)N(c3cc(Cl)ccc3Cl)C2=O)cc(OC)c1OC (stereo unspecified) | TGI | > 100 µM |
| CCOC(=O)Cc1cc(=O)oc2cc(O)ccc12 | TGI | > 100 µM |
| Cc1nc2ccccn2c1NC(=O)NNC(=S)Nc1ccc(Cl)cc1 | TGI | > 100 µM |
| Cc1c2ccccc2c(C)n2c1nc1cc3ccccc3cc12 | TGI | 4.88 µM |

Value lookup for TGI; key = COC(=O)C(=Cc1ccccc1[N+](=O)[O-])C(=O)OC
6.65 µM

Using the record for O=C(/C=C/c1cccc2ccccc12)c1ccccc1 , report its TGI.
25.2 µM

What value of TGI has been reported for the following compound? CCCCCc1cccc(=O)o1
> 100 µM

Field request: TGI | item: Cc1cn(C2CC(Br)C(COC(c3ccccc3)(c3ccccc3)c3ccccc3)O2)c(=O)[nH]c1=O (stereo unspecified)
19.8 µM

Find the recorded TGI belonging to C[Si](C)(C)/N=C1\N2C(=NC1(C(F)(F)F)C(F)(F)F)Sc1ccccc12 and report it.
> 50 µM

Any idea what TGI was measured for O=c1[nH]cnc2[nH]cc(CN3CCCCC3)c12 ?
> 100 µM
